pIC50 listing for selected molecules.
# Tested on: HepG2
# TEST_PROTOCOL: Antiproliferative activity against human HepG2 cells after 72 hrs by MTT assay
# Format: functional, cell-based
# SETTINGS: HepG2, 72 h
pIC50: −log10 of the molar value.
RESULT_TYPE: pIC50

structure_as_smiles=CC(=O)N[C@H]1[C@H](O[C@H]2CC[C@]3(C)[C@H]4CC=C5[C@@H]6CC(C)(C)CC[C@]6(C(=O)OCc6cn(-c7cccc(C#N)c7)nn6)CC[C@@]5(C)[C@]4(C)CC[C@H]3C2(C)C)O[C@H](CO[C@@H]2OC[C@H](O)[C@H](O)[C@@H]2O)[C@@H](O)[C@@H]1O result_type=pIC50 numeric_value=4.56
structure_as_smiles=CC(=O)N[C@H]1[C@H](O[C@H]2CC[C@]3(C)[C@H]4CC=C5[C@@H]6CC(C)(C)CC[C@]6(C(=O)OCc6cn(-c7ccc(Br)cc7)nn6)CC[C@@]5(C)[C@]4(C)CC[C@H]3C2(C)C)O[C@H](CO[C@@H]2OC[C@H](O)[C@H](O)[C@@H]2O)[C@@H](O)[C@@H]1O result_type=pIC50 numeric_value=4.90
structure_as_smiles=CC(=O)N[C@H]1[C@H](O[C@H]2CC[C@]3(C)[C@H]4CC=C5[C@@H]6CC(C)(C)CC[C@]6(C(=O)OCc6cn(-c7ccccc7OC(F)(F)F)nn6)CC[C@@]5(C)[C@]4(C)CC[C@H]3C2(C)C)O[C@H](CO[C@@H]2OC[C@H](O)[C@H](O)[C@@H]2O)[C@@H](O)[C@@H]1O result_type=pIC50 numeric_value=4.50
structure_as_smiles=CC(=O)N[C@H]1[C@H](O[C@H]2CC[C@]3(C)[C@H]4CC=C5[C@@H]6CC(C)(C)CC[C@]6(C(=O)OCc6cn(-c7cccc(F)c7)nn6)CC[C@@]5(C)[C@]4(C)CC[C@H]3C2(C)C)O[C@H](CO[C@@H]2OC[C@H](O)[C@H](O)[C@@H]2O)[C@@H](O)[C@@H]1O result_type=pIC50 numeric_value=4.74
structure_as_smiles=O=c1[nH]cc(F)c(=O)[nH]1 result_type=pIC50 numeric_value=4.32
structure_as_smiles=CC(=O)N[C@H]1[C@H](O[C@H]2CC[C@]3(C)[C@H]4CC=C5[C@@H]6CC(C)(C)CC[C@]6(C(=O)OCc6cn(-c7cccc(Br)c7)nn6)CC[C@@]5(C)[C@]4(C)CC[C@H]3C2(C)C)O[C@H](CO[C@@H]2OC[C@H](O)[C@H](O)[C@@H]2O)[C@@H](O)[C@@H]1O result_type=pIC50 numeric_value=5.26
structure_as_smiles=CC(=O)N[C@H]1[C@H](O[C@H]2CC[C@]3(C)[C@H]4CC=C5[C@@H]6CC(C)(C)CC[C@]6(C(=O)OCc6cn(-c7cccc(Cl)c7)nn6)CC[C@@]5(C)[C@]4(C)CC[C@H]3C2(C)C)O[C@H](CO[C@@H]2OC[C@H](O)[C@H](O)[C@@H]2O)[C@@H](O)[C@@H]1O result_type=pIC50 numeric_value=5.09
structure_as_smiles=CC(=O)N[C@H]1[C@H](O[C@H]2CC[C@]3(C)[C@H]4CC=C5[C@@H]6CC(C)(C)CC[C@]6(C(=O)OCc6cn(-c7ccc(C#N)cc7)nn6)CC[C@@]5(C)[C@]4(C)CC[C@H]3C2(C)C)O[C@H](CO[C@@H]2OC[C@H](O)[C@H](O)[C@@H]2O)[C@@H](O)[C@@H]1O result_type=pIC50 numeric_value=4.76
structure_as_smiles=CC(=O)N[C@H]1[C@H](O[C@H]2CC[C@]3(C)[C@H]4CC=C5[C@@H]6CC(C)(C)CC[C@]6(C(=O)OCc6cn(-c7ccc(C)cc7C)nn6)CC[C@@]5(C)[C@]4(C)CC[C@H]3C2(C)C)O[C@H](CO[C@@H]2OC[C@H](O)[C@H](O)[C@@H]2O)[C@@H](O)[C@@H]1O result_type=pIC50 numeric_value=4.39
structure_as_smiles=CC(=O)N[C@H]1[C@H](O[C@H]2CC[C@]3(C)[C@H]4CC=C5[C@@H]6CC(C)(C)CC[C@]6(C(=O)OCc6cn(-c7ccccc7)nn6)CC[C@@]5(C)[C@]4(C)CC[C@H]3C2(C)C)O[C@H](CO[C@@H]2OC[C@H](O)[C@H](O)[C@@H]2O)[C@@H](O)[C@@H]1O result_type=pIC50 numeric_value=4.74
structure_as_smiles=CC(=O)N[C@H]1[C@H](O[C@H]2CC[C@]3(C)[C@H]4CC=C5[C@@H]6CC(C)(C)CC[C@]6(C(=O)OCc6cn(-c7ccccc7Br)nn6)CC[C@@]5(C)[C@]4(C)CC[C@H]3C2(C)C)O[C@H](CO[C@@H]2OC[C@H](O)[C@H](O)[C@@H]2O)[C@@H](O)[C@@H]1O result_type=pIC50 numeric_value=4.21
structure_as_smiles=CC(=O)N[C@H]1[C@H](O[C@H]2CC[C@]3(C)[C@H]4CC=C5[C@@H]6CC(C)(C)CC[C@]6(C(=O)OCc6cn(-c7ccc(Cl)cc7)nn6)CC[C@@]5(C)[C@]4(C)CC[C@H]3C2(C)C)O[C@H](CO[C@@H]2OC[C@H](O)[C@H](O)[C@@H]2O)[C@@H](O)[C@@H]1O result_type=pIC50 numeric_value=4.55
structure_as_smiles=COc1ccccc1-n1cc(COC(=O)[C@]23CCC(C)(C)C[C@H]2C2=CC[C@@H]4[C@@]5(C)CC[C@H](O[C@@H]6O[C@H](CO[C@@H]7OC[C@H](O)[C@H](O)[C@@H]7O)[C@@H](O)[C@H](O)[C@H]6NC(C)=O)C(C)(C)[C@@H]5CC[C@@]4(C)[C@]2(C)CC3)nn1 result_type=pIC50 numeric_value=4.30
structure_as_smiles=COc1cccc(-n2cc(COC(=O)[C@]34CCC(C)(C)C[C@H]3C3=CC[C@@H]5[C@@]6(C)CC[C@H](O[C@@H]7O[C@H](CO[C@@H]8OC[C@H](O)[C@H](O)[C@@H]8O)[C@@H](O)[C@H](O)[C@H]7NC(C)=O)C(C)(C)[C@@H]6CC[C@@]5(C)[C@]3(C)CC4)nn2)c1 result_type=pIC50 numeric_value=5.19
